Exercise: for every item that follows, state its recorded recombinant barcode read abundance (log10).
Experiment: recombinant barcode read abundance after kanamycin selection (control-corrected) (log10(CPM+1)); higher = more efficient recombination; sequences stand for … in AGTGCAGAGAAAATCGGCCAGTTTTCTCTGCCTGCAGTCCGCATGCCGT…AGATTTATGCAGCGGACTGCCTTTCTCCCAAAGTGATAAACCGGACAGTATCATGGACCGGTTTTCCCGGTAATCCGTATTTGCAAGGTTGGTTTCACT; site = the 11-nt target

biopolymersequence="ACGGGATCTTGGGTTCTAACCTGTTGCCT (site CCGGGATCTAG)" measured=0.24
biopolymersequence="ACGATTCCTTGGGTTCTAACCTGTTGCCT (site ACGATTCCTAG)" measured=0.355
biopolymersequence="ACAGGTCCTTGGGTTCTAACCTGTTGCGA (site ACAGGTCCTTC)" measured=3.05
biopolymersequence="TAGGGTACTTGGGTTCTAACCTGTTGCGC (site TAGGGTACTGC)" measured=2.85

Respectfully, I request recombinant barcode read abundance (log10) for each entry included below.
1. GGGGTTCCTTGGGTTCTAACCTGTTGCGT (site GGGGTTCCTAC)
2. ACTTGGACTTGGGTTCTAACCTGTTGCAT (site ACTTGGACTAT)
3. TAGGGCCCTTGGGTTCTAACCTGTTGCCT (site CAGGGCCCTAG)
4. GATAGCTCTTGGGTTCTAACCTGTTGCCT (site AATAGCTCTAG)
5. CTCTTGACTTGGGTTCTAACCTGTTGCTT (site CTCTTGACTAA)

Marked response:
3.32
1.79
0.0445
0.332
0.871

###

Answer each item with its documented recombinant UMI read abundance (log10).
Assay: recombinant UMI read abundance after kanamycin selection (control-corrected) (log10(CPM+1)); higher = more efficient recombination; extreme values may be limits of the assay; sequences stand for … in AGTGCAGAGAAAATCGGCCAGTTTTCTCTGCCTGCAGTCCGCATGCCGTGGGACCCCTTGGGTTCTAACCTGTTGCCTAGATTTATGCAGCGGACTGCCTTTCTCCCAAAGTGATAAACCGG…AGGTTGGTTTCACT; site = the 11-nt donor

Worked cases, recombinant UMI read abundance (log10) given:
biopolymersequence="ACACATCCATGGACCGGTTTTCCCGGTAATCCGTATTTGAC (site ACACATCCTTT)" measuredmetric="recombinant UMI read abundance (log10)" measured=0.421
biopolymersequence="GTGCATGCATGGACCGGTTTTCCCGGTAATCCGTATTTGGA (site GTGCATGCTCC)" measuredmetric="recombinant UMI read abundance (log10)" measured=0.296
biopolymersequence="GGTTTGGCATGGACCGGTTTTCCCGGTAATCCGTATTTGCT (site CGTTTGGCTAG)" measuredmetric="recombinant UMI read abundance (log10)" measured=0
biopolymersequence="TGGATGTCATGGACCGGTTTTCCCGGTAATCCGTATTTGAA (site TGGATGTCTTT)" measuredmetric="recombinant UMI read abundance (log10)" measured=2.11

Next sequence, please.
Exam item: Recorded recombinant UMI read abundance (log10) for GAATGGTCATGGACCGGTTTTCCCGGTAATCCGTATTTGCA (site GAATGGTCTTG) , please?
Marked response: 2.38

###

Experiment: recombinant barcode read abundance after kanamycin selection (control-corrected) (log10(CPM+1)); higher = more efficient recombination; sequences stand for … in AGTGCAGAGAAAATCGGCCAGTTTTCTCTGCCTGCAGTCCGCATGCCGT…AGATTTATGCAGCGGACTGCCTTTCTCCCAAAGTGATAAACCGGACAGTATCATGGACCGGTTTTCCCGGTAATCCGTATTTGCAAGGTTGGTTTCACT; site = the 11-nt target
Criterion: recombinant barcode read abundance (log10) meeting or surpassing 0.3. Met: true (1). Not met: false (0).

Solved cases below.
biopolymersequence="TAGGATTCTTGGGTTCTAACCTGTTGCGT (site TAGGATGCTAC)" discretelabel="false (0)"
biopolymersequence="CGCCATCCTTGGGTTCTAACCTGTTGCAT (site CGCCCTCCTAT)" discretelabel="false (0)"
biopolymersequence="GAAGTCCCTTGGGTTCTAACCTGTTGCCT (site AAAGTCCCTAG)" discretelabel="true (1)"
biopolymersequence="GTCGCGACTTGGGTTCTAACCTGTTGCCT (site GTCGCGACTAG)" discretelabel="false (0)"
biopolymersequence="TAGTACCCTTGGGTTCTAACCTGTTGCAG (site TAGTACCCTGT)" discretelabel="false (0)"

Exam item: Please tell me: is the sequence CGCCTCGCTTGGGTTCTAACCTGTTGCCT (site CGCCTCCCTAG) at or over 0.3 in terms of recombinant barcode read abundance (log10)?
Marked response: false (0)

Exam item: # check: recombinant barcode read abundance (log10) of CGACCTGCTTGGGTTCTAACCTGTTGCCT (site CGCCCTACTAG) is greater than or equal to 0.3
Marked response: false (0)

Exam item: Identify whether the reported recombinant barcode read abundance (log10) of the following sequence is 0.3 or greater: ACTTGCTCTTGGGTTCTAACCTGTTGCTT (site ACTAGCTCTAG)
Marked response: true (1)

Exam item: Determine whether this sequence has recombinant barcode read abundance (log10) no lower than 0.3: TAGAAGACTTGGGTTCTAACCTGTTGCTT (site TAGAAGACTCA)
Marked response: false (0)
